Tested on: HOP-62 NSCLC
protocol text: NCI tumour cell line growth inhibition, 48 h
reported metric: TGI

Input line: Entry CN1CCC(CNC(=O)CCCCCCCCC(=O)NCC2(c3ccccc3)CCN(C)CC2)(c2ccccc2)CC1 : reported TGI = ?
Output line: > 100 µM

Input line: TGI for COc1ccc(C(C#N)NC23CC4CC(CC(C4)C2)C3)cc1OC (stereo unspecified) ?
Output line: > 100 µM

Input line: Please give the measured TGI for this molecule: Cc1ccc(N/C(Sc2ccccc2)=C(/C(Cl)=C(Cl)Cl)[N+](=O)[O-])c(C)c1
Output line: 59.7 µM

Input line: Item under review: O=C(O)CN=C(C(=NCC(=O)O)c1ccccc1)c1ccccc1 . Reported TGI?
Output line: > 100 µM

Input line: Recorded TGI of CN(C)/C(N)=N/C(N)=Nc1cccc(Cl)c1 , please.
Output line: > 100 µM

----------
Tested on: M14 melanoma
protocol text: NCI tumour cell line growth inhibition, 48 h
reported metric: TGI

smi | TGI
CCC[C@H](O)[C@@H](CNc1cc(NC(C)=O)nc(NC(C)=O)n1)N(Cc1ccccc1)Cc1ccccc1 | > 100 µM

Input line: May I ask what TGI has been recorded for O=C(CC(=O)c1ccc([N+](=O)[O-])cc1)C(=O)Nc1nccs1 ?
Output line: > 100 µM

Input line: Would you mind telling me what TGI value was observed for CN1CCC(CNC(=O)CCCCCCCCC(=O)NCC2(c3ccccc3)CCN(C)CC2)(c2ccccc2)CC1 ?
Output line: > 100 µM

Input line: Which TGI reading was recorded for the compound CCOc1cc(-c2nc3ccccn3c2/N=C/c2cc([N+](=O)[O-])cc([N+](=O)[O-])c2O)ccc1O ?
Output line: > 100 µM

Input line: Look at this compound and give its reported TGI. Cc1ccc(N/C(Sc2ccccc2)=C(/C(Cl)=C(Cl)Cl)[N+](=O)[O-])c(C)c1
Output line: 59.7 µM

----------
Test system: RPMI-8226 leukemia
protocol text: NCI tumour cell line growth inhibition, 48 h
reported metric: TGI

Consider the following illustrative entries.
compound | TGI
N#CC(c1ccc(Cl)cc1)c1c(O)nc2ccc(=N)cc-2n1O (stereo not drawn) | > 100 µM
CSc1ccccc1P(c1ccccc1SC)c1ccccc1SC | > 100 µM
CCCCCCCC(=O)OC[C@@H](C[As](=O)(O)O)OC(=O)CCCCCCC | 46.2 µM
COc1ccc(Cl)cc1Nc1nc(C(F)(F)F)ccc1C(=O)N/N=C/c1ccc([N+](=O)[O-])cc1 | 6.55 µM
CNC(C)Cc1ccccc1O (stereo not drawn) | > 100 µM

Input line: Item under review: O=C(Cn1c(=O)c(-c2ccccc2)nc2ccccc21)c1ccc(Cl)cc1 . Reported TGI?
Output line: > 100 µM

Input line: // query TGI value for entry C#CCSc1nc(N)c2ncn(C3OC(CO)C(O)C3O)c2n1 (stereo not drawn)
Output line: > 100 µM

Input line: Look up TGI: CC1(C)C(c2ccccc2)=NN(O)c2ccccc21
Output line: > 100 µM

Input line: Any idea what TGI was measured for CN1C(OCc2ccccc2)c2c(ccc3c2OCO3)C2C=Cc3cc4c(cc3C21)OCO4 (stereo not drawn) ?
Output line: 0.584 µM

Input line: Can you look up the measured TGI of Nc1ccc2c(c1)C1=NNC(=O)CC1C2 (stereo not drawn) for me?
Output line: > 100 µM

----------
System: UACC-62 melanoma
protocol text: NCI tumour cell line growth inhibition, 48 h
reported metric: TGI

The examples below pair each entry with its known result.
molecule | assay system | TGI
COc1cc2cc[n+](C)c(Cc3ccccc3)c2cc1OC | UACC-62 melanoma | > 100 µM
CN1CCN(CCCOc2cccc3nc(Nc4ccc(Cl)c(F)c4)ccc23)CC1 | UACC-62 melanoma | 4.1 µM
O=C(N/C(=C\c1ccccc1[N+](=O)[O-])c1nc2ccccc2[nH]1)c1ccccc1 | UACC-62 melanoma | > 100 µM
CN(C)c1ccc(-c2ccc(-c3ccc(C(=N)N)c(F)c3)s2)cc1 | UACC-62 melanoma | 3.66 µM
CNC(=O)CCNC(=O)CCC(=O)N(C)C | UACC-62 melanoma | > 100 µM

Attention now turns to another entry.
Input line: Requested field: TGI. Item: [N-]=[N+]=Nc1ccc(CCN2CCN(c3cccc(C(F)(F)F)c3)CC2)cc1I
Output line: > 100 µM

----------
Tested on: SF-268 CNS
protocol text: NCI tumour cell line growth inhibition, 48 h
reported metric: GI50

// solved cases for GI50 follow
compound | GI50
CCOC(=O)C1=C(C)NC2SC(=O)/C(=C\c3ccccc3Cl)N2C1c1ccccc1 (stereo not drawn) | > 100000 nM
CC(=O)[CH-]C(=O)c1ccccc1.CC(=O)[CH-]C(=O)c1ccccc1.COc1cccc([O-])c1[O-].[Ti+4] | 47600 nM
O=C(/C=C1\C(=O)N(Cc2ccc([N+](=O)[O-])cc2)c2ccccc21)c1ccc(OCCN2CCCCC2)cc1 | 1580 nM

Input line: What value of GI50 on SF-268 CNS does O=[N+]([O-])c1cc([N+](=O)[O-])c(Cl)c(Cl)c1Cl have?
Output line: 1730 nM

Input line: # returns recorded GI50 (system: SF-268 CNS) for O=C(/C=C/C12c3ccccc3C(c3ccccc31)C1C(=O)N(c3ccccc3)C(=O)C12)c1ccc(Cl)cc1 (stereo not drawn)
Output line: 4560 nM

----------
Each item that follows carries a reported TGI.
System: MALME-3M melanoma
protocol text: NCI tumour cell line growth inhibition, 48 h

Illustrative cases are given below, each with its answer.
molecule | TGI
COC(=O)[C@H]1[C@H]2C[C@@H]3c4[nH]c5cc(OC)ccc5c4CCN3C[C@H]2C[C@@H](OC(=O)c2cc(OC)c(OC)c(OC)c2)[C@@H]1OC | 34.2 µM
CC1SC(c2ccccc2)N(Nc2c3ccccc3nc3ccccc23)C1=O (centres undefined) | > 100 µM
CCN(CC)c1ccc2c(c1)OC(=O)C(c1nnc(-c3ccc([N+](=O)[O-])cc3)o1)C2 (centres undefined) | > 100 µM
Nc1nc(N)c(C2=CCN(Cc3ccccc3)CC2)c(=O)[nH]1 | > 100 µM

Input line: For the record O=C(Cn1c(=O)c(-c2ccccc2)nc2ccccc21)c1ccc(Cl)cc1 , what value of TGI is listed for MALME-3M melanoma?
Output line: > 100 µM

Input line: Find TGI (MALME-3M melanoma) for the entry O=C(O)CN=C(C(=NCC(=O)O)c1ccccc1)c1ccccc1
Output line: > 100 µM

Input line: GET /values?readout=TGI&system=MALME-3M melanoma&item= O=C(CCCn1c(=O)c2sc3ccccc3c2n2nnc(-c3ccccc3)c12)NCCc1cnc[nH]1
Output line: 5.49 µM

Input line: Request: TGI, test system MALME-3M melanoma, entry C=CCC1C(=O)C(C(=O)OC)N2CCc3c([nH]c4ccccc34)C12 (centres undefined)
Output line: > 100 µM

Input line: Record lookup: for MALME-3M melanoma, what TGI belongs to Clc1cc(OCc2nn3c(Cc4ccccc4)nnc3s2)ccc1OCc1nn2c(Cc3ccccc3)nnc2s1 ?
Output line: > 100 µM

----------
System: MDA-MB-435
protocol text: NCI tumour cell line growth inhibition, 48 h
Measured TGI, listed per entry.
State the answer as a number, implicitly in µM.

compound | TGI (µM)
O=C1CSC(/C=C/c2ccccc2)N1c1ccc(-c2ccc(-n3c(-c4ccccc4)nc4ccccc4c3=O)cc2)cc1 (stereo not given) | 49.3

Input line: Give its TGI value. Item: COc1ccc(C[n+]2c3ccccc3n3c4ccc(N)cc4ccc32)c(OC)c1OC
Output line: 13.5

Input line: Record request: TGI value, item O=C(/C=C/c1ccccc1)c1c[nH]c2ccccc2c1=O
Output line: 13.8

Input line: Given the compound O=C(/C=C1\C(=O)N(Cc2ccc([N+](=O)[O-])cc2)c2ccccc21)c1ccc(OCCN2CCCCC2)cc1 , what is its reported TGI?
Output line: 2.52

----------
Below, each of the compounds is paired with its reported GI50 value.
Test system: BT-549 breast
protocol text: NCI tumour cell line growth inhibition, 48 h

Examples from the recorded data:
compound | result
CN(CCC#N)c1ccc(/C=C(\C#N)c2cccc(C(F)(F)F)c2)cc1 | 3.28 µM
O=C(/C=C1\C(=O)N(Cc2ccc([N+](=O)[O-])cc2)c2ccccc21)c1ccc(OCCN2CCCCC2)cc1 | 1.64 µM
COc1cc(-c2n/c(=C\c3c(O)[nH]c4ccc(Cl)cc34)cc3c2=Nc2ccccc2-3)cc(OC)c1OC | 2.43 µM
COc1cc(/C=N/Nc2ncnc3c2cnn3C(C)C)ccc1O | > 20.4 µM
CC[C@@]1(OC(=O)CN)C(=O)OCc2c1cc1n(c2=O)Cc2cc3cc4c(cc3nc2-1)OCO4 | 0.0157 µM

Input line: Write down the reported GI50 of Cc1c(C)c2c(c(C)c1NC(=O)/C=C\C(=O)O)CCC(C)(CCCC(C)CCCC(C)CCCC(C)C)O2 (stereo unspecified) , test system: BT-549 breast.
Output line: 1.35 µM

Input line: Request - read-out GI50 | tested on BT-549 breast | compound COc1cccc(C(=O)Nc2ccc(CN3CCc4nc5cc(OC)c(OC)cc5cc43)cc2)c1
Output line: 5.32 µM

Input line: Please state recorded GI50 (tested on BT-549 breast) of N#CC(C#N)=Cc1c(-c2ccccc2)[nH]c2ccccc12
Output line: 8.45 µM

Input line: Provide the documented GI50 with BT-549 breast as the system for COc1cc(-c2nn(-c3ccc(NC(=O)Nc4ccc(Cl)c(Cl)c4)cc3)cc2-c2ccncc2)ccc1Cl
Output line: 3.35 µM

Input line: Request - read-out GI50 | tested on BT-549 breast | compound COc1cc(N2CCN(C(C)C)CC2)ccc1Nc1nc(Nc2cccc3ncccc23)c2cc[nH]c2n1
Output line: 4.75 µM

Input line: API: value(readout= GI50, system= BT-549 breast, query= O=C(/C=C/C12c3ccccc3C(c3ccccc31)C1C(=O)N(c3ccccc3)C(=O)C12)c1ccc(Cl)cc1 (stereo unspecified) )
Output line: 1.37 µM

meta.source: PubChem BioAssay (NCI)
